This collection of values is drawn from patent US20160235727A1.

target: human β3-AR (Homo sapiens, UniProt P13945); construct: expressed in transfected cells; host or cells: CHO (Chinese hamster ovary) cells, stably transfected; assay: cAMP functional agonist assay (LANCE TR-FRET) in CHO cells expressing cloned human β3-AR; type: cell-based; details: CHO cells stably expressing cloned human β3-adrenoceptor; cAMP release; read-out: Human β3-AR Agonism EC50
Sequence (P13945 whole entry): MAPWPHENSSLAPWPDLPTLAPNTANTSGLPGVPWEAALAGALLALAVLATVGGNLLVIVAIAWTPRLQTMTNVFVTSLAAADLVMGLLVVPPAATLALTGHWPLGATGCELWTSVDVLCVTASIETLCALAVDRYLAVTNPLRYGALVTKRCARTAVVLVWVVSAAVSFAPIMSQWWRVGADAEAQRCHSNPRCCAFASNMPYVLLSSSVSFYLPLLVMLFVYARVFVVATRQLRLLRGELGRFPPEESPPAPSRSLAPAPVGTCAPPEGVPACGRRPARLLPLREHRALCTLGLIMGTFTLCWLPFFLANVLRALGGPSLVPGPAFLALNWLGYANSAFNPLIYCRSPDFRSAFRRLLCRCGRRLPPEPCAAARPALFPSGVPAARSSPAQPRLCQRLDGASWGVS

[
  {
    "compound": "CN(Cc1n[nH]c2c1CCC2)C(=O)c1ccc(C[C@@H]2CC[C@H]([C@H](O)c3ccccc3)N2)cc1",
    "unit.string": "nM",
    "censor.symbol": "=",
    "EC50": 3
  },
  {
    "compound": "CC(O)c1cncc(CN(C)C(=O)c2ccc(C[C@@H]3CC[C@H]([C@H](O)c4ccc(Cl)nc4)N3)cc2)c1 (stereo partly drawn)",
    "unit.string": "nM",
    "censor.symbol": "=",
    "EC50": 7
  },
  {
    "compound": "CN(Cc1cncc(C(C)(C)O)c1)C(=O)c1ccc(C[C@@H]2CC[C@H]([C@H](O)c3ccc(Cl)nc3)N2)cc1",
    "unit.string": "nM",
    "censor.symbol": "=",
    "EC50": 13
  },
  {
    "compound": "CN(Cc1n[nH]c2c1CCC2)C(=O)c1ccc(C[C@@H]2CC[C@H]([C@H](O)c3ccc(Cl)nc3)N2)cc1",
    "unit.string": "nM",
    "censor.symbol": "=",
    "EC50": 2
  },
  {
    "compound": "CC(C)c1cc(CN(C)C(=O)c2ccc(C[C@@H]3CC[C@H]([C@H](O)c4ccc(Cl)nc4)N3)cc2)n[nH]1",
    "unit.string": "nM",
    "censor.symbol": "=",
    "EC50": 59
  },
  {
    "compound": "CN(Cc1cccnc1)C(=O)c1ccc(C[C@@H]2CC[C@H]([C@H](O)c3ccc(N)nc3)N2)cc1",
    "unit.string": "nM",
    "censor.symbol": "=",
    "EC50": 20
  },
  {
    "compound": "CN(Cc1cccnc1F)C(=O)c1ccc(C[C@@H]2CC[C@H]([C@H](O)c3ccc(F)cc3)N2)cc1",
    "unit.string": "nM",
    "censor.symbol": "=",
    "EC50": 136
  },
  {
    "compound": "CN(Cc1cccnc1)C(=O)c1ccc(C[C@@H]2CC[C@H]([C@H](O)c3ccc(C#N)nc3)N2)cc1",
    "unit.string": "nM",
    "censor.symbol": "=",
    "EC50": 274
  },
  {
    "compound": "COCc1cc(CN(C)C(=O)c2ccc(C[C@@H]3CC[C@H]([C@H](O)c4ccccc4)N3)cc2)n[nH]1",
    "unit.string": "nM",
    "censor.symbol": "=",
    "EC50": 15
  },
  {
    "compound": "COc1ccc(CN(C)C(=O)c2ccc(C[C@@H]3CC[C@H]([C@H](O)c4ccc(Cl)nc4)N3)cc2)cn1",
    "unit.string": "nM",
    "censor.symbol": "=",
    "EC50": 17
  },
  {
    "compound": "CN(Cc1nc2ccccc2c(=O)n1C)C(=O)c1ccc(C[C@@H]2CC[C@H]([C@H](O)c3ccccc3)N2)cc1",
    "unit.string": "nM",
    "censor.symbol": "=",
    "EC50": 65
  },
  {
    "compound": "Cc1cc(CN(C)C(=O)c2ccc(C[C@@H]3CC[C@H]([C@H](O)c4ccccc4)N3)cc2)cnc1F",
    "unit.string": "nM",
    "censor.symbol": "=",
    "EC50": 2
  },
  {
    "compound": "Cc1nnc(-c2cncc(CN(C)C(=O)c3ccc(C[C@@H]4CC[C@H]([C@H](O)c5ccccc5)N4)cc3)c2)o1",
    "unit.string": "nM",
    "censor.symbol": "=",
    "EC50": 59
  },
  {
    "compound": "Cc1nnc(-c2cncc(CN(C)C(=O)c3ccc(C[C@@H]4CC[C@H]([C@H](O)c5ccc(Cl)nc5)N4)cc3)c2)o1",
    "unit.string": "nM",
    "censor.symbol": "=",
    "EC50": 14
  },
  {
    "compound": "CN(Cc1cc(C(F)(F)F)[nH]n1)C(=O)c1ccc(C[C@@H]2CC[C@H]([C@H](O)c3ccc(Cl)nc3)N2)cc1",
    "unit.string": "nM",
    "censor.symbol": "=",
    "EC50": 2
  },
  {
    "compound": "Cc1cc(CN(C)C(=O)c2ccc(C[C@@H]3CC[C@H]([C@H](O)c4ccc(Cl)nc4)N3)cc2)cnc1F",
    "unit.string": "nM",
    "censor.symbol": "=",
    "EC50": 1
  },
  {
    "compound": "CN(Cc1cncc(-c2nnn[nH]2)c1)C(=O)c1ccc(C[C@@H]2CC[C@H]([C@H](O)c3ccc(Cl)nc3)N2)cc1",
    "unit.string": "nM",
    "censor.symbol": "=",
    "EC50": 27
  },
  {
    "compound": "CN(Cc1cccnc1)C(=O)c1ccc(C[C@@H]2CC[C@H]([C@H](O)c3ccc(C4CC4)nc3)N2)cc1",
    "unit.string": "nM",
    "censor.symbol": "=",
    "EC50": 19
  },
  {
    "compound": "CN(Cc1cccnc1)C(=O)c1ccc(C[C@@H]2CC[C@H]([C@H](O)c3cccnc3)N2)cc1",
    "unit.string": "nM",
    "censor.symbol": "=",
    "EC50": 38
  },
  {
    "compound": "CC(=O)c1ccc([C@@H](O)[C@H]2CC[C@@H](Cc3ccc(C(=O)N(C)Cc4cccnc4)cc3)N2)cn1",
    "unit.string": "nM",
    "censor.symbol": "≥",
    "EC50": 10000
  },
  {
    "compound": "COCCN(C)C(=O)c1ccc(C[C@@H]2CC[C@H]([C@H](O)c3ccc(Cl)nc3)N2)cc1",
    "unit.string": "nM",
    "censor.symbol": "=",
    "EC50": 96
  },
  {
    "compound": "CN(Cc1nc2ccsc2c(=O)[nH]1)C(=O)c1ccc(C[C@@H]2CC[C@H]([C@H](O)c3ccc(Cl)nc3)N2)cc1",
    "unit.string": "nM",
    "censor.symbol": "=",
    "EC50": 2
  },
  {
    "compound": "COC(=O)c1cncc(CN(C)C(=O)c2ccc(C[C@@H]3CC[C@H]([C@H](O)c4ccccc4)N3)cc2)c1",
    "unit.string": "nM",
    "censor.symbol": "=",
    "EC50": 14
  },
  {
    "compound": "Cc1n[nH]c(CN(C)C(=O)c2ccc(C[C@@H]3CC[C@H]([C@H](O)c4ccccc4)N3)cc2)c1Cl",
    "unit.string": "nM",
    "censor.symbol": "=",
    "EC50": 17
  },
  {
    "compound": "Cc1[nH]nc(CN(C)C(=O)c2ccc(C[C@@H]3CC[C@H]([C@H](O)c4ccc(Cl)nc4)N3)cc2)c1O",
    "unit.string": "nM",
    "censor.symbol": "=",
    "EC50": 1
  },
  {
    "compound": "Cc1nc(-c2ccc([C@@H](O)[C@H]3CC[C@@H](Cc4ccc(C(=O)N(C)Cc5cccnc5)cc4)N3)cn2)no1",
    "unit.string": "nM",
    "censor.symbol": "≥",
    "EC50": 10000
  },
  {
    "compound": "CN(Cc1cccnc1)C(=O)c1ccc(C[C@@H]2CC[C@H]([C@H](O)c3ccc(Cl)cc3)N2)cc1",
    "unit.string": "nM",
    "censor.symbol": "=",
    "EC50": 6
  }
]

* * *

molecular target: human β3-AR (Homo sapiens); construct: expressed in transfected cells; host or cells: CHO (Chinese hamster ovary) cells, stably transfected; assay: cAMP functional agonist assay (LANCE TR-FRET) in CHO cells expressing cloned human β3-AR; type: cell-based; conditions: CHO cells stably expressing cloned human β3-adrenoceptor; cAMP release; read-out: Human β3-AR Agonism EC50
pEC50: −log10 of the molar value.
pEC50 listing for selected compounds.

[
  {
    "compound": "Cc1cc([C@@H](O)[C@H]2CC[C@@H](Cc3ccc(C(=O)N(C)Cc4cnccn4)cc3)N2)cnc1Cl [Example 40-S]",
    "pEC50": 5.50
  },
  {
    "compound": "CN(Cc1cnccn1)C(=O)c1ccc(C[C@@H]2CC[C@H]([C@H](O)c3ccccc3)N2)cc1 [Example 40-B]",
    "pEC50": 7.77
  },
  {
    "compound": "CN(Cc1cncc(C(=O)O)c1)C(=O)c1ccc(C[C@@H]2CC[C@H]([C@H](O)c3ccccc3)N2)cc1 [Example 33-B]",
    "pEC50": 7.06
  },
  {
    "compound": "CN(Cc1ccnnc1)C(=O)c1ccc(C[C@@H]2CC[C@H]([C@H](O)c3ccc(Cl)nc3)N2)cc1 [Example 42-A]",
    "pEC50": 8.52
  },
  {
    "compound": "CN(Cc1cccnc1)C(=O)c1ccc(C[C@@H]2CC[C@H]([C@H](O)c3ccc(Cl)nc3)N2)cc1 [Example 21-A]",
    "pEC50": 8.40
  },
  {
    "compound": "CC(C)c1cc(CN(C)C(=O)c2ccc(C[C@@H]3CC[C@H]([C@H](O)c4ccccc4)N3)cc2)n[nH]1 [Example 7-B]",
    "pEC50": 6.73
  },
  {
    "compound": "CN(Cc1cncc(C#N)c1)C(=O)c1ccc(C[C@@H]2CC[C@H]([C@H](O)c3ccc(Cl)nc3)N2)cc1 [Example 35-A]",
    "pEC50": 7.77
  }
]
